- Tested on: CCRIS mutagenicity, Ames/micronucleus/aberration tests
- protocol: CCRIS mutagenicity studies
- cond: Test System: AMES SALMONELLA TYPHIMURIUM; Strain/Indicator: TA98; Metabolic Activation: NONE; Method: PREINCUBATION
Calls of active or inactive are those of the source. The rule behind the calls is not given here.
Classes used: active, inactive

O=Cc1cccc(Cl)c1Cl; inactive
C=C(C)/C([O-])=N/[N+](C)(C)CC(C)O (stereo not drawn); inactive
Cc1cc(O)c(C(C)(C)C)cc1Sc1cc(C(C)(C)C)c(O)cc1C; inactive
O=P(OCCCl)(OCCCl)OCCCl; inactive
CCCCC(CC)CNCC(CC)CCCC (stereo not drawn); inactive
O=[N+]([O-])c1cc(-c2ccccc2)ccc1O; inactive
O=S(=O)(O)c1cc(S(=O)(=O)O)c2cc(O)ccc2c1; inactive
O=CNc1ccccc1; inactive
O=C1C=CC(=O)c2c(O)ccc(O)c21; inactive
CC(C)CNCC(C)C; inactive
COc1ccc2cc([C@H](C)C(=O)O)ccc2c1; inactive
O=[N+]([O-])c1ccc2nc3cc([N+](=O)[O-])ccc3nc2c1; active
O=[N+]([O-])c1ccc2oc3ccc([N+](=O)[O-])cc3c2c1; active

---

- Test system: CCRIS mutagenicity, Ames/micronucleus/aberration tests
- protocol: CCRIS mutagenicity studies
- cond: Test System: AMES SALMONELLA TYPHIMURIUM; Strain/Indicator: TA100; Metabolic Activation: NONE; Method: PREINCUBATION
- Excerpt: The CCRIS database contains chemical records with carcinogenicity, mutagenicity, tumor promotion, and tumor inhibition test results. It was developed by the National Cancer Institute (NCI). Data are derived from studies cited in primary journals, current awareness tools, NCI reports, and other sources. Test results have been reviewed by experts in carcinogenesis and mutagenesis. CCRIS provides historical information from the years 1985 - 2011. It is no longer updated. […]
Active and inactive are the calls of the source. How the calls were made is not given here.
propertyLabel: mutagenic call

C=C1/C(=C\C=C2/CCC[C@]3(C)[C@@H]([C@H](C)/C=C/[C@@H](O)C4CC4)CC[C@@H]23)C[C@@H](O)C[C@@H]1O; inactive; negative
CCCCCCCCCCCC(=O)O; inactive; negative
[K+]; inactive; negative
NC(N)=S; inactive; negative
CCCC/C=C/C=O; inactive; negative
CCc1ccccc1O; inactive; negative
CCCCOC(=O)c1ccc(N)cc1; inactive; negative
CC1=CC[C@H]2C(C)=CC[C@@H](C(C)C)[C@@H]2C1; inactive; negative
Cc1ccccc1C; inactive; negative
CCOc1ccc(NC(C)=O)cc1; inactive; negative
O.[Al+3].[Al+3].[Na+].[Na+].[O-2].[O-2].[O-2].[O-2].[O-2].[O-2].[Si+4]; inactive; negative
NC(=Nc1ccccc1)Nc1ccccc1; inactive; negative
CCCNCCC; inactive; negative
B#B; inactive; negative

---

- Test system: CCRIS mutagenicity, Ames/micronucleus/aberration tests
- protocol: CCRIS mutagenicity studies
- cond: Test System: AMES SALMONELLA TYPHIMURIUM; Strain/Indicator: TA1535; Metabolic Activation: NONE; Method: PREINCUBATION
- Text: The CCRIS database contains chemical records with carcinogenicity, mutagenicity, tumor promotion, and tumor inhibition test results. It was developed by the National Cancer Institute (NCI). Data are derived from studies cited in primary journals, current awareness tools, NCI reports, and other sources. Test results have been reviewed by experts in carcinogenesis and mutagenesis. CCRIS provides historical information from the years 1985 - 2011. It is no longer updated. […]
Activity calls are given as the source filed them. The rule behind the calls is not given here.
Outcome codes: 1.0 (active), 0.0 (inactive)

CNCCS(=O)(=O)O; 0.0
CC(Cl)Cl; 0.0
Cc1cc(-c2ccc(N=C=O)c(C)c2)ccc1N=C=O; 0.0
O=C(Br)CBr; 0.0
C=C(C)/C([O-])=N/[N+](C)(C)CC(C)O (stereo not given); 0.0
c1cc(OCC2CO2)cc(OCC2CO2)c1 (stereo not given); 1.0
O=C1O[C@H]([C@@H](O)CO)C(O)=C1O; 0.0
CCn1c2ccccc2c2cc(N)ccc21; 0.0
COC(=O)NC(=S)Nc1ccccc1NC(=S)NC(=O)OC; 0.0
O=C1OC(=O)c2c(Cl)c(Cl)c(Cl)c(Cl)c21; 0.0
Fc1c(F)c(F)c(Cl)c(F)c1F; 0.0
CNNCc1ccc(C(=O)NC(C)C)cc1; 0.0
Clc1nc2ccccc2nc1Cl; 0.0
CCCCOCCOP(=O)(OCCOCCCC)OCCOCCCC; 0.0
CCCCCCCCCCCCS; 0.0

---

- System: CCRIS mutagenicity, Ames/micronucleus/aberration tests
- protocol: CCRIS mutagenicity studies
- cond: Test System: AMES SALMONELLA TYPHIMURIUM; Strain/Indicator: TA100; Metabolic Activation: RAT, LIVER, S-9, PHENOBARBITAL; Method: PREINCUBATION
Active and inactive are the calls of the source. The rule behind the calls is not given here.
Possible outcomes: Y (active), N (inactive)

Nc1ccccc1; N
O=P1(NCCCl)OCCCN1CCCl (stereo not given); Y
O=C1C=C2C(=CCOC2O)O1 (stereo not given); N
CC(O)CN(CC(C)O)N=O (stereo not given); Y
O=S(=O)(O)c1cc(S(=O)(=O)O)c2cc(O)ccc2c1; N

---

- Test system: CCRIS mutagenicity, Ames/micronucleus/aberration tests
- protocol: CCRIS mutagenicity studies
- cond: Test System: AMES SALMONELLA TYPHIMURIUM; Strain/Indicator: TA102; Metabolic Activation: NONE; Method: STANDARD PLATE
The source made the active and inactive calls. No rule for the calls is given here.
Possible outcomes: label 1 (active), label 0 (inactive)

CNC(=O)c1c(N(C)N=O)ncn1C; label 0
O=C1OC(O)C(C(Cl)Cl)=C1Cl (stereo unspecified); label 1
COCc1ccc([N+]#N)cc1; label 1
CCOCC(=O)O; label 0
COc1cc(NC(C)CCCN)c2ncccc2c1 (stereo unspecified); label 0
CC1(C)[C@@H]2CC[C@@]1(C)C(=O)C2=O; label 0

---

- System: CCRIS mutagenicity, Ames/micronucleus/aberration tests
- protocol: CCRIS mutagenicity studies
- cond: Test System: AMES SALMONELLA TYPHIMURIUM; Strain/Indicator: TA1535; Metabolic Activation: HAMSTER, LIVER, S-9, AROCLOR 1254; Method: PREINCUBATION
Activity calls are given as the source filed them. No rule for the calls is given here.
Outcomes: active, inactive

O=[N+]([O-])c1c(Cl)c(Cl)cc(Cl)c1Cl; inactive
CC1(C)COC1=O; inactive
ClCC(Cl)CCl; active
Cc1ccccc1C; inactive
OCc1ccccc1; inactive
ClC(Cl)=C(Cl)Cl; inactive

---

- System: CCRIS mutagenicity, Ames/micronucleus/aberration tests
- protocol: CCRIS mutagenicity studies
- cond: End Point: IN VITRO CHROMOSOMAL ABERRATIONS; Test System: CHL CELLS; Metabolic Activation: RAT, LIVER, S-9, SODIUM PHENOBARBITAL AND 5,6-BENZOFLAVONE
The source made the active and inactive calls. No rule for the calls is given here.
propertyLabel: mutagenic call

Nc1ccc2c(c1)C(=O)c1ccccc1C2=O; inactive; negative
Nc1cc(N)cc(C(=O)O)c1; inactive; negative

---

- Test system: CCRIS mutagenicity, Ames/micronucleus/aberration tests
- protocol: CCRIS mutagenicity studies
- cond: Test System: AMES SALMONELLA TYPHIMURIUM; Strain/Indicator: TA1535; Metabolic Activation: RAT, LIVER, S-9, AROCLOR 1254 (2%); Method: STANDARD PLATE
Activity calls are given as the source filed them. How the calls were made is not given here.
propertyLabel: mutagenic call

Nc1ccc2ccc3ccccc3c2c1; active; positive
Nc1ccc2c(c1)-c1cccc3cccc-2c13; inactive; negative
Nc1cc2ccc3cccc4ccc(c1)c2c34; inactive; negative
Nc1cccc2cc3ccccc3cc12; active; positive

---

- System: CCRIS mutagenicity, Ames/micronucleus/aberration tests
- protocol: CCRIS mutagenicity studies
- cond: Test System: AMES SALMONELLA TYPHIMURIUM; Strain/Indicator: TA100; Metabolic Activation: NONE; Method: FLUCTUATION TEST
Activity calls are given as the source filed them. No rule for the calls is given here.
Outcomes: yes (1) (active), no (0) (inactive)

F; no (0)
C[C@H](CCC(=O)O)[C@H]1CC[C@H]2[C@@H]3CC[C@@H]4CC(=O)CC[C@]4(C)[C@H]3C[C@H](O)[C@]12C; no (0)
O=C(O)C(Br)Br; yes (1)
ClC(Br)Br; no (0)
Oc1ccccc1; no (0)
C[C@H](CCC(=O)O)[C@H]1CC[C@H]2[C@@H]3CC[C@@H]4C[C@H](O)CC[C@]4(C)[C@H]3CC(=O)[C@]12C; no (0)

---

- Test system: CCRIS mutagenicity, Ames/micronucleus/aberration tests
- protocol: CCRIS mutagenicity studies
- cond: End Point: IN VITRO CHROMOSOMAL ABERRATIONS; Test System: CHO CELLS; Metabolic Activation: RAT, LIVER, S-9, AROCLOR 1254
- Description: The CCRIS database contains chemical records with carcinogenicity, mutagenicity, tumor promotion, and tumor inhibition test results. It was developed by the National Cancer Institute (NCI). Data are derived from studies cited in primary journals, current awareness tools, NCI reports, and other sources. Test results have been reviewed by experts in carcinogenesis and mutagenesis. CCRIS provides historical information from the years 1985 - 2011. It is no longer updated. […]
The source made the active and inactive calls. No rule for the calls is given here.
propertyLabel: mutagenic call

CCN(CC)C(=S)S; inactive; negative
COc1ccc(C(=O)/C(Br)=C\C(=O)O)cc1; active; positive
ClC(Cl)=C(Cl)Cl; inactive; negative
O=C1O[C@H]([C@@H](O)CO)C(O)=C1O; inactive; negative
Oc1ccccc1; active; positive
Cc1cc(N=Nc2c(O)ccc3ccccc23)c(S(=O)(=O)O)cc1Cl; inactive; negative
BrCC(Br)C1CCC(Br)C(Br)C1 (centres undefined); inactive; negative
CCBr; inactive; negative
Oc1ccc2ccccc2c1N=Nc1ccccc1; inactive; negative
BrCCBr; active; positive
